test system: CAL-72 (Osteosarcoma); experiment: combination Emax (second highest fraction inhibited in the dose matrix, 72 h); higher = more inhibition; extreme values may be limits of the assay
I'd be grateful if you could share measured combination Emax for these entries.
Answers are plain numbers.

CS(=O)(=O)CCNCc1ccc(-c2ccc3ncnc(Nc4ccc(OCc5cccc(F)c5)c(Cl)c4)c3c2)o1 [Lapatinib] + NC1(c2ccc(-c3nc4ccn5c(=O)[nH]nc5c4cc3-c3ccccc3)cc2)CCC1 [MK-2206] (first compound max 10 µM, 7x7, partner max 10 µM) ... 0.89

Let's switch to this molecule now.
Exercise: So what does the record say about combination Emax for C=CCn1c(=O)c2cnc(Nc3ccc(N4CCN(C)CC4)cc3)nc2n1-c1cccc(C(C)(C)O)n1 [AZD1775] + C[C@@H]1COCCN1C2=NC(=NC(=C2)C3(CC3)[S@](=N)(=O)C)C4=C5C=CNC5=NC=C4 [AZD6738] (first compound max 1 µM, partner max 10 µM) ?
Solution: 0.93

---

tested on: KS-1 (Glioblastoma); assay: combination Emax (second highest fraction inhibited in the dose matrix, 72 h); higher = more inhibition; extreme values may be limits of the assay
measure_name: combination Emax
Give bare numbers.

CN(CCO)CC[C@H](CSc1ccccc1)Nc1ccc(S(=O)(=O)NC(=O)c2ccc(N3CCC([C@@H](O)c4ccccc4-c4ccc(Cl)cc4)CC3)cc2)cc1S(=O)(=O)C(F)(F)F [AZD4320] + C1CN(CCC1(C(=O)N[C@@H](CCO)C2=CC=C(C=C2)Cl)N)C3=NC=NC4=C3C=CN4 [Capivasertib] (first compound max 1 µM, 7x7, partner max 3 µM) ... 0.296

Exercise: So what does the record say about combination Emax for CC(=O)Nc1cccc(-n2c(=O)n(C3CC3)c(=O)c3c(Nc4ccc(I)cc4F)n(C)c(=O)c(C)c32)c1 [Trametinib] + Cc1nc(-c2cn3c(n2)-c2ccc(-c4cnn(C(C)(C)C(N)=O)c4)cc2OCC3)n(C(C)C)n1 [Taselisib] (first compound max 1 µM, 7x7, partner max 10 µM) ?
Solution: 0.832

---

I'd be grateful if you could share measured combination Emax for these entries.
tested on: BPH-1 (Non-Cancerous); assay: combination Emax (second highest fraction inhibited in the dose matrix, 72 h); higher = more inhibition; extreme values may be limits of the assay

Below, each entry is followed by its recorded combination Emax result.
CC1(C)CCC(CN2CCN(c3ccc(C(=O)NS(=O)(=O)c4ccc(NCC5CCOCC5)c([N+](=O)[O-])c4)c(Oc4cnc5[nH]ccc5c4)c3)CC2)=C(c2ccc(Cl)cc2)C1 [Venetoclax] + COc1cc(Nc2ncc3c(n2)-c2ccc(Cl)cc2C(c2c(F)cccc2OC)=NC3)ccc1C(=O)O [Alisertib] (first compound max 1 µM, 7x7, partner max 10 µM) ... 0.745
Cn1cnc2c(F)c(Nc3ccc(Br)cc3Cl)c(C(=O)NOCCO)cc21 [Selumetinib] + CC(C)n1c(=O)n(C)c2cnc3cc(F)c(-c4ccc(OCCCN5CCCCC5)nc4)cc3c21 [AZD1390] (first compound max 10 µM, 7x7, partner max 0.3 µM) ... 0.487

Give measured combination Emax for every item shown.
1. COc1cccc(OCCCN)c1-c1cc(Nc2cnc(C#N)cn2)n[nH]1 [Prexasertib] + CN(C)CCCOc1ccc(-c2ccc3ncc4c(c3c2)n(C2CCOCC2)c(=O)n4C)cn1 [AZD0156] (first compound max 1 µM, 7x7, partner max 1 µM)
2. CC(=O)Nc1cccc(-n2c(=O)n(C3CC3)c(=O)c3c(Nc4ccc(I)cc4F)n(C)c(=O)c(C)c32)c1 [Trametinib] + Cc1nc(-c2cn3c(n2)-c2ccc(-c4cnn(C(C)(C)C(N)=O)c4)cc2OCC3)n(C(C)C)n1 [Taselisib] (first compound max 1 µM, 7x7, partner max 10 µM)

Solution:
1: 0.235; 2: 0.94
